- Test system: Candida
- experiment.notes: In vitro MIC, NCCLS M27A, Candida species
- Assay type: cell-based
- Set-up: unit not given beside the values
- run.conditions: C. glabrata strain 90030
# if measured MIC, C. glabrata 90030 < 0.5: fulfilled  # else: not fulfilled

Completed entries (count: 3):
**Query** Strictly below 0.5: is that where MIC, C. glabrata 90030 of Cc1ccc(Cl)cc1N1CCN(c2ccc(-n3cnn([C@H](C)[C@@](O)(Cn4cncn4)c4ccc(F)cc4F)c3=O)cc2)CC1 sits?
**Result** not fulfilled

**Query** Strictly below 0.5: is that where MIC, C. glabrata 90030 of Cc1ccc(Cl)cc1N1CCN(c2ccc(-n3cnn(CC(O)(Cn4cncn4)c4ccc(F)cc4F)c3=O)cc2)CC1 (centres unmarked) sits?
**Result** not fulfilled

**Query** Strictly below 0.5: is that where MIC, C. glabrata 90030 of O=c1n(-c2ccc(N3CCN(c4cccc(C(F)(F)F)c4)CC3)cc2)cnn1CC(O)(Cn1cncn1)c1ccc(F)cc1F (centres unmarked) sits?
**Result** not fulfilled

---
**Query** Strictly below 0.5: is that where MIC, C. glabrata 90030 of C[C@@H](n1ncn(-c2ccc(N3CCN(c4ccc(Cl)cc4)CC3)cc2)c1=O)[C@](O)(Cn1cncn1)c1ccc(F)cc1F sits?
**Result** fulfilled

**Query** Strictly below 0.5: is that where MIC, C. glabrata 90030 of COc1ccc(F)cc1N1CCN(c2ccc(-n3c(C)nn([C@H](C)[C@](O)(Cn4cncn4)c4ccc(F)cc4F)c3=O)cc2)CC1 sits?
**Result** not fulfilled
